Target: T1, AIM2FL (Homo sapiens, UniProt O14862 1-343)
T1 sequence: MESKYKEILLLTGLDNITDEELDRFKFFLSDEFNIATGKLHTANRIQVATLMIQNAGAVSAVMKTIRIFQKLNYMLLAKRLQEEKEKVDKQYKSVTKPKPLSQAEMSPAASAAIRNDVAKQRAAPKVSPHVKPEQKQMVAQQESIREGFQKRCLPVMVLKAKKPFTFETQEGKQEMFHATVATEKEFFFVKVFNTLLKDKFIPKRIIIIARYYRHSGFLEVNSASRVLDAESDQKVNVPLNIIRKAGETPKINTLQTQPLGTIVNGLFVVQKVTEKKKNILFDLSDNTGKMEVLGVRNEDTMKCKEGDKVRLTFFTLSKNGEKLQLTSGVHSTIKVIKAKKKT
Assay: competition fluorescence anisotropy; unlabelled competitor against 6 nM 24-bp FAM-dsDNA, 100 nM protein; 160 mM KCl (60 mM KCl for IFI16HinAB); buffer, pH and temperature not given in the available text
Settings: protein: recombinant
hey, just use satisfied if measured IC50 is less than 0.05 µM, otherwise not satisfied

Use the examples below as a reference point.
binder	answer_label
60-base ssRNA_U (ssRNA) RNA: UUUCUUUCUUUCUUUCUUUCUUUCUUUCUUUCUUUCUUUCUUUCUUUCUUUCUUUCUUUC	not satisfied
60-base ssDNA_T (ssDNA) DNA: TTTCTTTCTTTCTTTCTTTCTTTCTTTCTTTCTTTCTTTCTTTCTTTCTTTCTTTCTTTC	not satisfied
60-bp dsRNA (dsRNA) RNA 1: UAAGACACGAUGCGAUAAAAUCUGUUUGUAAAAUUUAUUAAGGGUACAAAUUGCCCUAGC RNA 2: GCUAGGGCAAUUUGUACCCUUAAUAAAUUUUACAAACAGAUUUUAUCGCAUCGUGUCUUA	not satisfied
60-base ssRNA_A (ssRNA) RNA: AAAGAAAGAAAGAAAGAAAGAAAGAAAGAAAGAAAGAAAGAAAGAAAGAAAGAAAGAAAG	satisfied

Prompt: For 60-bp dsDNA (dsDNA) DNA 1: TAAGACACGATGCGATAAAATCTGTTTGTAAAATTTATTAAGGGTACAAATTGCCCTAGC DNA 2: GCTAGGGCAATTTGTACCCTTAATAAATTTTACAAACAGATTTTATCGCATCGTGTCTTA , is the recorded IC50 below the cut-off of 0.05 µM?
Completion: satisfied
